- System: Mycobacterium tuberculosis (strain H37RV)
- Method: In-vitro method for testing compounds against M. tuberculosis (resazurin growth inhibition, MIC)
- Type: cell-based
- Measurement setup: MIC data representing IC90's, 7 days incubation, resazurin fluorescence

Molecule	Unit abbreviation	MIC
COc1nc2ccc(Br)cc2cc1C(c1ccccc1)C(O)(CN(C)C)c1ccccc1 (single isomer, unassigned) [Compound 62]	microgram/ml	7.79
CCN(CC)CCC(O)(c1ccccc1)C(c1ccccc1)c1cc2cc(Br)ccc2nc1OC (stereo not shown)	microgram/ml	6.72
COc1ccc2nc(OC)c(C(c3ccccc3)C(O)(CCN(C)C)c3ccccc3)cc2c1 (single isomer, unassigned) [Compound 35]	microgram/ml	1.82
COc1nc2ccc(Br)cc2cc1C(c1ccccc1)C(O)(CCN(C)C)c1ccc(N2CCOCC2)cc1 (racemic) [Compound 89]	microgram/ml	59.06

* * *

- System: Mycobacterium tuberculosis (strain H37RV)
- Method: In-vitro method for testing compounds against M. tuberculosis (resazurin growth inhibition, MIC)
- Type: cell-based
- Measurement setup: MIC data representing IC90's, 7 days incubation, resazurin fluorescence
Recorded MIC by entry

Compound	MIC / microgram/ml
COc1nc2ccc(Br)cc2cc1C(c1ccccc1)C(O)(CCN(C)C)c1cccc(F)c1 (stereo not shown) [Compound 38]	8.30
COc1nc2ccc(Br)cc2cc1C(c1ccccc1)C(O)(CCn1cncn1)c1ccccc1 (racemic) [Compound 54]	52.94
COc1nc2ccc(Br)cc2cc1C(c1ccccc1)C(O)(CN(C)C)c1ccccc1 (single isomer, unassigned) [Compound 61]	39.04
COc1nc2ccc(Br)cc2cc1C(c1ccccc1)C(O)(CCN(C)C)c1cccc(F)c1 (stereo not shown) [Compound 39]	8.30

* * *

A collection of compounds and their measured melting point

Compound	melting point, °C
COc1nc2ccc(Br)cc2cc1C(c1ccccc1)C(O)(CC[N+](C)(C)[O-])c1ccccc1 (stereo not drawn) [Compound 11]	208
COc1nc2ccc(Br)cc2cc1C(c1ccccc1)C(O)(CC[N+](C)(C)C)c1ccccc1.[I-] (stereo not drawn) [Compound 10]	198
COc1nc2ccc(Br)cc2cc1C(c1ccccc1)C(O)(CCN)c1ccccc1 (stereo not drawn) [Compound 9]	204

* * *

In this section, each of the molecules is paired with its reported MIC.
- Test system: Mycobacterium tuberculosis (strain H37RV)
- Method: In-vitro method for testing compounds against M. tuberculosis (resazurin growth inhibition, MIC)
- Assay type: cell-based
- Measurement setup: MIC data representing IC90's, 7 days incubation, resazurin fluorescence
Value type: MIC (microgram/ml)

Molecule	Study target	Readout value
COc1nc2ccc(Br)cc2cc1C(c1ccccc1)C(O)(CCN1CCSCC1)c1ccccc1 (racemic) [Compound 55]	Mycobacterium tuberculosis (strain H37RV)	44.77
COc1nc2cc(C)c(C)cc2cc1C(c1ccccc1)C(O)(CCN(C)C)c1cccc2ccccc12 (single isomer, unassigned) [Compound 229]	Mycobacterium tuberculosis (strain H37RV)	40.09
COc1nc2ccc(Br)cc2cc1C(c1ccccc1)C(O)(CCN1CCN(c2ncccn2)CC1)c1ccc2ccccc2c1 (single isomer, unassigned) [Compound 200]	Mycobacterium tuberculosis (strain H37RV)	67.47
COc1nc2ccc(Br)cc2cc1C(c1ccccc1)C(O)(CC[N+](C)(C)C)c1cccc2ccccc12.[I-] (single isomer, unassigned) [Compound 102]	Mycobacterium tuberculosis (strain H37RV)	2.21
